The measured values listed here are drawn from ChEMBL document CHEMBL4130419.

Test: Apparent permeability from basolateral to apical side in MDCK2-MDR1 cells at 75 uM after 2 hrs UV-visible spectroscopy
Assay type: ADME, cell-based, Canis lupus familiaris
Settings: dog, MDCK-MDR1
Where Papp B→A at 2 h, 75 µM equals or exceeds 50 ×10⁻⁶ cm/s, the correct label is Met; where it does not, the label is Not met.

{"COMPOUND": "Cn1cc(SCC(=O)N2N=C(c3cccs3)CC2c2ccc(F)cc2)c2ccccc21 (configuration not stated)", "LABEL CLASS": "Not met"}
{"COMPOUND": "Cc1cccc(-c2nnc(SCC(=O)c3ccc(O)cc3O)n2-c2ccccc2)c1", "LABEL CLASS": "Not met"}
{"COMPOUND": "CCOC(=O)c1c(C)[nH]c(C)c1C(=O)CSC1=Nc2ccccc2C2CC=NN12 (configuration not stated)", "LABEL CLASS": "Not met"}
{"COMPOUND": "COc1ccc(-c2cc(C(F)F)n3ncc(C(=O)Nc4cc(Cl)ccc4O)c3n2)cc1", "LABEL CLASS": "Not met"}
{"COMPOUND": "CCCCN1C(=O)c2[nH]nc(-c3ccccc3O)c2C1c1ccc(OCC)cc1 (configuration not stated)", "LABEL CLASS": "Met"}

[ask] Is Papp B→A at 2 h, 75 µM for `NC(=O)C1CCN(c2nc(CSc3ccccc3)nc3sc4c(c23)CCCC4)CC1` at or above 50 ×10⁻⁶ cm/s?
[reply] Met

[ask] Dear colleague, could you confirm whether O=C(c1c[nH]c2ccccc12)C(NCc1ccc2c(c1)OCO2)c1ccccc1 (configuration not stated) has Papp B→A at 2 h, 75 µM at or above 50 ×10⁻⁶ cm/s?
[reply] Met

###

Test system: SH-SY5Y
Assay: Antiproliferative activity against human SH-SY5Y cells after 72 hrs by MTT assay
Type: functional, cell-based
Threshold check on IC50: strictly below 50 µM is 1 (yes); on or above 50 µM is 0 (no).

Use the examples below as a reference point.
{"COMPOUND": "Cc1cccc(-n2ccnc2SCC(=O)c2ccc3c(c2)CCC(=O)N3)c1", "LABEL CLASS": "0 (no)"}
{"COMPOUND": "CCc1cccc(NC(=O)c2cnn3c(C(F)F)cc(-c4ccc(C)cc4)nc23)c1", "LABEL CLASS": "0 (no)"}
{"COMPOUND": "CCOC(=O)c1c(C)[nH]c(C)c1C(=O)CSC1=Nc2ccccc2C2CC=NN12 (stereo not given)", "LABEL CLASS": "1 (yes)"}
{"COMPOUND": "CCC(c1nnc(SCC(=O)c2[nH]c(C)c(C(C)=O)c2C)n1Cc1ccccc1)N(C)C (stereo not given)", "LABEL CLASS": "1 (yes)"}
{"COMPOUND": "COc1cc2c(=O)c(C(=O)c3ccc(C)c(C)c3)cn(Cc3ccc(F)cc3)c2cc1OC", "LABEL CLASS": "1 (yes)"}

# next compound below
[ask] State whether 50 µM exceeds IC50 recorded for `COc1ccc(C)cc1NC(=O)c1cnn2c(C(F)F)cc(-c3ccc(C)cc3)nc12` .
[reply] 0 (no)

###

System: HeLa
Test: Antiproliferative activity against human HeLa cells after 72 hrs by MTT assay
Assay type: functional, cell-based
pIC50: recorded values
Scale note: pIC50 = -log10(concentration in M).

The value of pIC50 measured for the compound Cc1cc(C)c(O)c(-c2n[nH]c3c2C(c2ccccc2)N(CCCO)C3=O)c1 (centres undefined) turned out to be 4.30

So for `COc1ccc(-n2c(SCC(=O)c3ccc(OC(F)F)cc3)nc3ccccc32)cc1` , the logged pIC50 turned out to be 4.43

// sample CCCCN1C(=O)c2[nH]nc(-c3ccccc3O)c2C1c1ccc(OCC)cc1 (centres undefined) , its pIC50 was 4.68
